- target: recombinant HCV NS5B (Hepatitis C virus genotype 1b, UniProt P26663)
- test-name: biochemical
- run-conditions: flashplate, polyrA/biotinylated-oligo dT, 100 nM NS5B, 2 hrs at room temperature; read-out: RNA pol Assay 2 IC50 (μm)
Collected IC50 values appear next to each entry.

Study these solved cases before continuing.
[
  {
    "smiles-repr": "O=C(O)[C@H](Cc1ccccc1)N(C(=O)c1ccc(Cl)cc1Cl)C1CCN(C(=O)OCc2ccccc2)CC1",
    "IC50": "5 to 20 µM"
  },
  {
    "smiles-repr": "O=C(O)[C@H](Cc1ccccc1)N(Cc1ccc(-c2cccc(C(F)(F)F)c2)s1)C(=O)c1ccc(Cl)cc1Cl",
    "IC50": "5 to 20 µM"
  },
  {
    "smiles-repr": "O=C(O)[C@@H](Cc1ccccc1)N(Cc1ccccc1)C(=O)c1ccc(Cl)cc1Cl",
    "IC50": "5 to 20 µM"
  }
]

# input State the recorded IC50 for this entry: `O=C(O)[C@H](Cc1ccccc1)N(Cc1cnc(-c2cc3ccccc3o2)s1)C(=O)c1ccc(Cl)cc1Cl`
# output < 5 µM

---

- target: HCV NS5B RNA-dependent RNA polymerase (Hepatitis C virus genotype 1b, UniProt P26663)
- Sequence (P26663 2420-3010 limits assumed): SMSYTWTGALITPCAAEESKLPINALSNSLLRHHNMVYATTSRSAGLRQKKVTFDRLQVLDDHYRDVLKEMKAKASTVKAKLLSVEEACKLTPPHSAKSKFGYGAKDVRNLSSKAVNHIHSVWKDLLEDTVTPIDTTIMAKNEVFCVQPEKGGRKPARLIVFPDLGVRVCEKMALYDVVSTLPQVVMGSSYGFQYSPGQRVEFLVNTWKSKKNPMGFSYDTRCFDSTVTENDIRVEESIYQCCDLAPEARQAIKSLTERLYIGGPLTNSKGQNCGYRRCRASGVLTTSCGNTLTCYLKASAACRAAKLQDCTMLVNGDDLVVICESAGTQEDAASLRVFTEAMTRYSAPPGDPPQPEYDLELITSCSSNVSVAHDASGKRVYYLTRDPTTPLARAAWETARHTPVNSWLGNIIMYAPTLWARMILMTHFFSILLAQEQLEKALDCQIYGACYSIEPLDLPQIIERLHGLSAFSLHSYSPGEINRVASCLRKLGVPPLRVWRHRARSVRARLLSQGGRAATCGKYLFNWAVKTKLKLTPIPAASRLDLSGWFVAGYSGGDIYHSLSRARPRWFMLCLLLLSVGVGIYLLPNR
- test-name: In vitro RNA-dependent RNA polymerase assay (Assay 1), polyA/oligo dT, TCA precipitation
- Format: biochemical
- run-conditions: polyA/oligo dT template/primer, 200 ng NS5B, 2 h at 22° C.; read-out: RNA pol Assay 1 IC50 (μm)
attribute-measured: IC50

[
  {
    "compound": "O=C(O)[C@H](Cc1ccccc1)N(Cc1ccc(-c2cccc(C(F)(F)F)c2)o1)C(=O)c1ccc(Cl)cc1Cl [compound #56]",
    "IC50": "< 5 µM"
  },
  {
    "compound": "O=C(O)[C@H](Cc1ccccc1)N(Cc1cc(-c2ccc(Cl)s2)cs1)C(=O)c1ccc(Cl)cc1Cl [compound #133]",
    "IC50": "< 5 µM"
  },
  {
    "compound": "O=C(O)[C@H](Cc1ccccc1)N(Cc1ccc(-c2ccncc2)s1)C(=O)c1ccc(Cl)cc1Cl [compound #138]",
    "IC50": "< 5 µM"
  },
  {
    "compound": "O=C(O)[C@H](Cc1ccccc1)N(Cc1ccc(-c2cccc(C(F)(F)F)c2)o1)C(=O)c1ccc(Cl)cc1I [compound #131]",
    "IC50": "< 5 µM"
  },
  {
    "compound": "O=C(O)[C@H](Cc1ccccc1)N(Cc1ccc(-c2cccc(C(F)(F)F)c2)o1)C(=O)c1ccc(Cl)cc1Br [compound #78]",
    "IC50": "< 5 µM"
  },
  {
    "compound": "CCCN(C(=O)c1ccc(Cl)cc1Cl)[C@@H](Cc1ccccc1)C(=O)O [compound #112]",
    "IC50": "> 20 µM"
  }
]

# input # IC50 lookup, item O=C(O)[C@H](Cc1ccccc1)N(Cc1ccc(Br)cc1)C(=O)c1ccc(Cl)cc1Cl [compound #3]
# output < 5 µM

# input Please answer likewise for C=CCN(C(=O)c1ccc(Cl)cc1Cl)[C@@H](Cc1ccccc1)C(=O)O [compound #109]
# output 5 to 20 µM

---

- target: recombinant HCV NS5B (Hepatitis C virus genotype 1b, UniProt P26663)
- test-name: biochemical
- run-conditions: flashplate, polyrA/biotinylated-oligo dT, 100 nM NS5B, 2 hrs at room temperature; read-out: RNA pol Assay 2 IC50 (μm)
attribute-measured: IC50

[
  {
    "compound": "O=C(O)[C@H](Cc1ccccc1)N(Cc1ccc([N+](=O)[O-])cc1)C(=O)c1ccc(Cl)cc1Cl",
    "IC50": "5 to 20 µM"
  },
  {
    "compound": "O=C(O)[C@H](Cc1ccccc1)N(Cc1cnc(Cl)s1)C(=O)c1ccc(Cl)cc1Cl",
    "IC50": "< 5 µM"
  },
  {
    "compound": "Cc1cccc(-c2ccsc2CN(C(=O)c2ccc(Cl)cc2Cl)[C@@H](Cc2ccccc2)C(=O)O)c1",
    "IC50": "< 5 µM"
  },
  {
    "compound": "O=C(O)[C@H](Cc1ccccc1)N(Cc1ccc(-c2ccc(F)cc2)s1)C(=O)c1ccc(Cl)cc1Cl",
    "IC50": "< 5 µM"
  }
]

# input Please report the recorded IC50 for `CC(=O)c1cccc(CN(C(=O)c2ccc(Cl)cc2Cl)[C@@H](Cc2ccccc2)C(=O)O)c1` .
# output < 5 µM

# input Another: `CN(C(=O)c1ccc(Cl)cc1Cl)[C@@H](Cc1ccccc1Br)C(=O)O`
# output 5 to 20 µM
